assay details: Pharmacokinetics (PK) of the compound in rats
Format: in vivo
protocol conditions: rat, plasma; SD rats, IV 1 mg/kg, n = 3; read-out: Vz_obs iv (apparent volume of distribution)
quantity name: log10 of Vd (log10 of the value in L/kg)
Parameter value (number): base-10 log of Vd in L/kg.

Per the records, this compound ( COc1cc(C(=O)N2CCC[C@@H](N)C2)cc2nc(-c3cc4ccsc4n3CC(C)C)n(C)c12 [Compound 20] ) has log10 of Vd equal to 0.46

Data point: COc1cc(C(=O)N2CCC[C@@H](N)C2)cc2nc(-c3cc4ccsc4n3CC(F)(F)F)n(C)c12 [Compound 21] ; log10 of Vd = 0.94

Form field log10 of Vd, entry CCn1c(-c2nc3cc(C(=O)N4CCC[C@@H](N)C4)cc(OC)c3n2C)cc2ccsc21 [Compound 3] : 1.05

Per the record, CCn1c(-c2nc3cc(C(=O)N4CCC[C@@H](N)C4)cc(OC)c3n2C)cc2cc(C)sc21 [Compound 9] has log10 of Vd of 1.34

Entry CCn1c(-c2nc3cc(C(=O)N4CCC[C@@H](N)C4)cc(OC)c3n2C)cc2cccnc21 [Compound GSK199, reference compound] ; log10 of Vd = 0.83

Field log10 of Vd (entry COc1cc(C(=O)N2CCC[C@@H](N)C2)cc2nc(-c3cc4ccsc4n3CC3CCC3)n(C)c12 [Compound 22] ) reads 0.25

Measured log10 of Vd, COc1cc(C(=O)N2CCC[C@@H](N)C2)cc2nc(-c3cc4ccsc4n3CC3CC3)n(C)c12 [Compound 18] : 0.75

Reported log10 of Vd for COc1cc(C(=O)N2CCC[C@@H](N)C2)cc2nc(-c3cc4cc(C)sc4n3CC3CC3)n(C)c12 [Compound 23] was 1.06

These entries and their values trace back to patent US20200407370A1.
